- test-details: Cmax in beagle dog at 5 mg/kg, po by LC-MS/MS method
- Format: ADME, organism-based, Canis lupus familiaris
- Parameters: dose 5 mg/kg, route oral
- conditions: in vivo
endpoint: Cmax (ng/mL)
Please give a number only; it is taken to be in ng/mL.

Q: # query: Cmax of entry O=C(O)CNC(=O)C1=C(O)CCN(Cc2ccc(Oc3ccc(Cl)cc3)nc2)C1=O
Ans: 6980

###

- test-details: Half life in patient administered as qd
- Format: ADME, organism-based
- conditions: human, in vivo
endpoint: half-life (h)
Please give a number only; it is taken to be in h.

O=C(O)CNC(=O)c1ncc(-c2cccc(Cl)c2)cc1O
4.5

In the following, a different molecule is considered.
Q: # query: half-life of entry O=C(O)CNC(=O)C1C(=O)N(C2CCCCC2)C(=O)N(C2CCCCC2)C1=O
Ans: 2.7
